TARGET SYSTEM: SERCA2a (cardiac SR vesicles) (Sus scrofa, UniProt P11607)
Construct: Cardiac SR vesicles were isolated from fresh porcine left ventricular tissue; from tissue; host or cells: porcine left ventricular tissue, cardiac SR vesicles
Sequence (P11607 1-997 isoform P11607-2): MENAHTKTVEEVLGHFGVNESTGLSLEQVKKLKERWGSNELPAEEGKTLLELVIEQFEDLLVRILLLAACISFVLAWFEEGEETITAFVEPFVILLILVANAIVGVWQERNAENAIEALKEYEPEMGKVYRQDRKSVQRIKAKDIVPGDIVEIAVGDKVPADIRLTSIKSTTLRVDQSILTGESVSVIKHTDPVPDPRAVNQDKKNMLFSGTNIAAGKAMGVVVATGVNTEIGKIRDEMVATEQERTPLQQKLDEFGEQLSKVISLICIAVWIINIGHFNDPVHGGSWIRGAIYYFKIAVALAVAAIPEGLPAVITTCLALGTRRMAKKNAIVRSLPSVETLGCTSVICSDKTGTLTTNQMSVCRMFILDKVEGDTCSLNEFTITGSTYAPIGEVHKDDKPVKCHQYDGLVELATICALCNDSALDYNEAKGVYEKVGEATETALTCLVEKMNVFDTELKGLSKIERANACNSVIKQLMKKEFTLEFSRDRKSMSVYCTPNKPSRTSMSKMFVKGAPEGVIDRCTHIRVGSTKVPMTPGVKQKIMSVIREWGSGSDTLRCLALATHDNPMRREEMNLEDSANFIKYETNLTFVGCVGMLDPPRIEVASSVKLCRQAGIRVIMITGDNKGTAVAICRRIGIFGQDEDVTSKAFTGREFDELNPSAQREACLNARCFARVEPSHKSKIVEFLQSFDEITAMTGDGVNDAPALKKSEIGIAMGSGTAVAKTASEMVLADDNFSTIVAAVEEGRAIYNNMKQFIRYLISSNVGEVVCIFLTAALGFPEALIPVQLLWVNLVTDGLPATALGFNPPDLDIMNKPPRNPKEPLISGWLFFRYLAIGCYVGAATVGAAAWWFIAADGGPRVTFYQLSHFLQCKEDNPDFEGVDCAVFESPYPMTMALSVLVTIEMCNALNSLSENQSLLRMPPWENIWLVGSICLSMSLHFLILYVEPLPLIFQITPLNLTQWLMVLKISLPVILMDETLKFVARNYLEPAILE
TEST DETAILS: Oxalate-supported Ca2+-uptake assay, cardiac SR (CRC at pCa 5.4)
Format: biochemical, porcine
EXPERIMENTAL SETUP: maximal effect of CRC, pCa 5.4, mean ± SD, n = 3; dash = no observable effect
ATTRIBUTE MEASURED: Cardiac SR Ca^2+ Uptake Activity Percent Increase (%)

Ask: What does the data say about its Cardiac SR Ca^2+ Uptake Activity Percent Increase? Entry: CCOC(=O)C1(CCCc2ccccc2)CCN(C(=O)CC2=CCCCC2)CC1
Reply: 24

Ask: What does the data say about its Cardiac SR Ca^2+ Uptake Activity Percent Increase? Entry: CCC(C)N(Cc1ccc(C)cc1)Cc1nccs1 (stereo not drawn)
Reply: 32

Ask: What does the data say about its Cardiac SR Ca^2+ Uptake Activity Percent Increase? Entry: COc1ccccc1CNc1nc(C(C)(C)C)nc2c1cnn2C
Reply: 28

---

TARGET SYSTEM: SERCA2a (cardiac SR vesicles) (Sus scrofa)
Construct: Cardiac SR vesicles were isolated from fresh porcine left ventricular tissue; from tissue; host or cells: porcine left ventricular tissue, cardiac SR vesicles
TEST DETAILS: Oxalate-supported Ca2+-uptake assay, cardiac SR (CRC at pCa 5.4)
Assay type: biochemical, porcine
EXPERIMENTAL SETUP: pCa 5.4, mean ± SD, n = 3; dash = no observable effect; read-out: Cardiac SR Ca^2+ Uptake Activity EC50
ATTRIBUTE MEASURED: EC50 (µM)

Answered examples (4):
Ask: Please tell me: EC50 of COc1ncc(CN(Cc2sccc2C)CC(C)C)cn1 , system SERCA2a (cardiac SR vesicles) (Sus scrofa)?
Reply: 1.2

Ask: Please tell me: EC50 of Cc1ccc(CN(C)C(=O)CC(c2ccccc2)c2ccc3c(c2)OCO3)o1 (stereo not drawn) , system SERCA2a (cardiac SR vesicles) (Sus scrofa)?
Reply: 1.6

Ask: Please tell me: EC50 of OCc1ccccc1-c1ccc(-c2nc(CCc3ccccc3)no2)cn1 , system SERCA2a (cardiac SR vesicles) (Sus scrofa)?
Reply: 2.4

Ask: Please tell me: EC50 of CCCN(Cc1ccccc1OC)C(=O)c1cc(C)c(C)s1 , system SERCA2a (cardiac SR vesicles) (Sus scrofa)?
Reply: 1.6

(I) CCOC(=O)C1(CCc2ccccc2)CCN(C(=O)c2occc2C)CC1
(II) COc1ccccc1CNc1nc(C(C)(C)C)nc2c1cnn2C
Ask: Would you kindly point out which of I and II has the smaller EC50 figure? Reply briefly: the label of your chosen item.
Reply: II
(II: 2.5 µM, I: 4 µM)

---

TARGET SYSTEM: SERCA1a (rabbit light skeletal SR vesicles) (Oryctolagus cuniculus, UniProt P04191)
Construct: rabbit muscles were freshly harvested from the back and hind leg of New Zealand White rabbits and purified using a sucrose gradient
TEST DETAILS: NADH-coupled Ca-ATPase activity assay, skeletal SR (CRC at pCa 5.4)
EXPERIMENTAL SETUP: pCa 5.4, mean ± SD, n = 3
pEC50: −log10 of the molar value.
ATTRIBUTE MEASURED: pEC50

Ask: What does the data say about its pEC50? Entry: Cc1ccc(CN(C)C(=O)CC(c2ccccc2)c2ccc3c(c2)OCO3)o1 (stereo not shown)
Reply: 5.00

Ask: What does the data say about its pEC50? Entry: C=CCN(Cc1ccccc1OCC)C(=O)C1CCC1
Reply: 5.05

(a) Cc1ccsc1CN(C)C(=O)CC(c1ccccc1)c1ccc2c(c1)OCO2 (stereo not shown)
(b) COc1ccccc1CNc1nc(C(C)(C)C)nc2c1cnn2C
Ask: Would you kindly point out which of a and b has the smaller pEC50 figure? Reply briefly: the label of your chosen item.
Reply: a
(a: 5.14, b: 5.48)

---

TARGET SYSTEM: SERCA1a (rabbit light skeletal SR vesicles) (Oryctolagus cuniculus, UniProt P04191)
Construct: rabbit muscles were freshly harvested from the back and hind leg of New Zealand White rabbits and purified using a sucrose gradient; from tissue; host or cells: rabbit (New Zealand White) back and hind leg skeletal muscle, light SR vesicles
TEST DETAILS: NADH-coupled Ca-ATPase activity assay, skeletal SR (CRC at pCa 5.4)
Type: biochemical
EXPERIMENTAL SETUP: maximal effect of CRC 0.05 to 50 µM, pCa 5.4, relative to DMSO, mean ± SD, n = 3
ATTRIBUTE MEASURED: Skeletal SR ATPase Activity Percent Increase (%)

Ask: What does the data say about its Skeletal SR ATPase Activity Percent Increase? Entry: CCCSCC(=O)N(Cc1ccc(C)s1)C1CCCC1
Reply: 54

Ask: What does the data say about its Skeletal SR ATPase Activity Percent Increase? Entry: CCCCN(Cc1ccsc1)C(=O)c1occc1C
Reply: 45

Ask: What does the data say about its Skeletal SR ATPase Activity Percent Increase? Entry: CCOC(=O)C1(CCCc2ccccc2)CCN(C(=O)CC2=CCCCC2)CC1
Reply: 41

Ask: What does the data say about its Skeletal SR ATPase Activity Percent Increase? Entry: Fc1ccc(N2CCCN(Cc3nc(C(c4ccccc4)c4ccccc4)no3)CC2)cc1
Reply: 41

Ask: What does the data say about its Skeletal SR ATPase Activity Percent Increase? Entry: CN(Cc1ccccc1)c1ncccc1CNc1ncccc1Cl
Reply: 36

Ask: What does the data say about its Skeletal SR ATPase Activity Percent Increase? Entry: COc1cccc(-c2nn(-c3ccccc3)cc2CN(Cc2c(C)nn(C)c2C)C2CC2)c1
Reply: 39

---

TARGET SYSTEM: SERCA1a (skeletal SR vesicles) (Oryctolagus cuniculus, UniProt P04191)
Construct: rabbit muscles were freshly harvested from the back and hind leg of New Zealand White rabbits and purified using a sucrose gradient; from tissue; host or cells: rabbit (New Zealand White) back and hind leg skeletal muscle, light SR vesicles
Sequence (P04191 1-994 isoform P04191-2): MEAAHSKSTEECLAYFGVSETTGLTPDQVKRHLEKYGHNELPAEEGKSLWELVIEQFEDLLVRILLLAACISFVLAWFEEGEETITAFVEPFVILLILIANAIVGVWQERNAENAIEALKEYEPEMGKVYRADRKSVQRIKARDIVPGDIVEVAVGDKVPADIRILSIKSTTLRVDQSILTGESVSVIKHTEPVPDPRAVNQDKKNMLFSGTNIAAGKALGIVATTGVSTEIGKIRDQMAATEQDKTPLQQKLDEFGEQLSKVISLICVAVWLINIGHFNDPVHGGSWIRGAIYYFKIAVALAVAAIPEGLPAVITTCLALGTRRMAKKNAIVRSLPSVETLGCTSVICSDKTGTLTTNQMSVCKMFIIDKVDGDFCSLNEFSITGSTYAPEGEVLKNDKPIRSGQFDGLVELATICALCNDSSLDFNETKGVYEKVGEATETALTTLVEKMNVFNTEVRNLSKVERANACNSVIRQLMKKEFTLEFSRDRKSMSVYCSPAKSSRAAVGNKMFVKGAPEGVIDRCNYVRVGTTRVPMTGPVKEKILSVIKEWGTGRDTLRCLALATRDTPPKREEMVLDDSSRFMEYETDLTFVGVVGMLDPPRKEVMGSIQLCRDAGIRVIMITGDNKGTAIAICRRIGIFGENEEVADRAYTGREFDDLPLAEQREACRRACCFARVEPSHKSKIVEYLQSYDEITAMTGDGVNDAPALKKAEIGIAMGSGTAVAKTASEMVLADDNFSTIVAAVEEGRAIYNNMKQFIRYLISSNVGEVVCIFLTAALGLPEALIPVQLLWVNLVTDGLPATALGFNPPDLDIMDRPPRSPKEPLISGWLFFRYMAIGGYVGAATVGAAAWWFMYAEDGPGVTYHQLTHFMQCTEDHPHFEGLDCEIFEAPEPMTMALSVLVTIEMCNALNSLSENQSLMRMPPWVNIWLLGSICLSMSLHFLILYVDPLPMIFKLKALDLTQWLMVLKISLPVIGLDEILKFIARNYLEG
TEST DETAILS: Oxalate-supported Ca2+-uptake assay, skeletal SR (CRC at pCa 5.4)
Type: biochemical, rabbit
EXPERIMENTAL SETUP: maximal effect of CRC, pCa 5.4, mean ± SD, n = 3; dash = no observable effect
ATTRIBUTE MEASURED: Skeletal SR Ca^2+ Uptake Activity Percent Increase (%)

Ask: What does the data say about its Skeletal SR Ca^2+ Uptake Activity Percent Increase? Entry: Fc1ccc(N2CCCN(Cc3nc(C(c4ccccc4)c4ccccc4)no3)CC2)cc1
Reply: 6.5

Ask: What does the data say about its Skeletal SR Ca^2+ Uptake Activity Percent Increase? Entry: Cc1ccc(CN(C)C(=O)CC(c2ccccc2)c2ccc3c(c2)OCO3)o1 (centres unmarked)
Reply: 11

Ask: What does the data say about its Skeletal SR Ca^2+ Uptake Activity Percent Increase? Entry: CN(Cc1ccccc1)c1ncccc1CNc1ncccc1Cl
Reply: 8

Ask: What does the data say about its Skeletal SR Ca^2+ Uptake Activity Percent Increase? Entry: CCCSCC(=O)N(Cc1ccc(C)s1)C1CCCC1
Reply: 20

Ask: What does the data say about its Skeletal SR Ca^2+ Uptake Activity Percent Increase? Entry: OCc1ccccc1-c1ccc(-c2nc(CCc3ccccc3)no2)cn1
Reply: 7.2

(I) COc1ccccc1CNc1nc(C(C)(C)C)nc2c1cnn2C
(II) CCOC(=O)C1(CCCc2ccccc2)CCN(C(=O)CC2=CCCCC2)CC1
(III) CCOC(=O)C1(CCc2ccccc2)CCN(C(=O)c2occc2C)CC1
Ask: List the 3 entries from lowest Skeletal SR Ca^2+ Uptake Activity Percent Increase to highest Skeletal SR Ca^2+ Uptake Activity Percent Increase value. Provide the labels, sequenced as the question asks.
Reply: I, II, III

(a) Cc1ccsc1CN(C)C(=O)CC(c1ccccc1)c1ccc2c(c1)OCO2 (centres unmarked)
(b) COc1ncc(CN(Cc2sccc2C)CC(C)C)cn1
(c) CCC(C)N(Cc1ccc(C)cc1)Cc1nccs1 (centres unmarked)
Ask: Rank entries according to their Skeletal SR Ca^2+ Uptake Activity Percent Increase, from the largest number down. Provide the labels, sequenced as the question asks.
Reply: c, b, a
(c: 27%, b: 15%, a: 9.1%)

---

TARGET SYSTEM: SERCA1a (skeletal SR vesicles) (Oryctolagus cuniculus)
Construct: rabbit muscles were freshly harvested from the back and hind leg of New Zealand White rabbits and purified using a sucrose gradient; from tissue; host or cells: rabbit (New Zealand White) back and hind leg skeletal muscle, light SR vesicles
TEST DETAILS: Oxalate-supported Ca2+-uptake assay, skeletal SR (CRC at pCa 5.4)
Assay type: biochemical, rabbit
EXPERIMENTAL SETUP: pCa 5.4, mean ± SD, n = 3; dash = no observable effect; read-out: Skeletal SR Ca^2+ Uptake Activity EC50
pEC50: −log10 of the molar value.
ATTRIBUTE MEASURED: pEC50

(I) C=CCN(Cc1ccccc1OCC)C(=O)C1CCC1
(II) CCOC(=O)C1(CCc2ccccc2)CCN(C(=O)c2occc2C)CC1
Ask: Would you kindly point out which of I and II has the smaller pEC50 figure? Reply briefly: the label of your chosen item.
Reply: II

(A) CCOC(=O)C1(Cc2cccc(C(F)(F)F)c2)CCN(C(=O)c2sccc2C)CC1
(B) Cc1ccc(CN(C)C(=O)CC(c2ccccc2)c2ccc3c(c2)OCO3)o1 (stereo not shown)
Ask: A or B : whose pEC50 is greater? Reply briefly: the label of your chosen item.
Reply: A

Reference source for all entries: paper PMC9776381
